# reported IC50; entries follow
- Test system: Plasmodium falciparum 3D7 (chloroquine-sensitive)
- METHOD_SUMMARY: In vitro antiplasmodial screening, parasitemia by flow cytometry
- Assay type: cell-based
- CONDITION_LABEL: Plasmodium falciparum; 3D7 chloroquine-sensitive, 48 h; read-out: Plasmodium falciparum 3D7 IC50
PROPERTY_NAME: IC50

{"columns": ["COMPOUND", "MEASURED_RESULT"],
 "data": [
  ["Cc1ccccc1NC1=CC(=O)c2ccccc2C1=O [Compound 3]", "0.0049 µg/mL"],
  ["CN(C1=CC(=O)c2ccccc2C1=O)c1ccccc1 [Compound 11]", "> 1 µg/mL"],
  ["COc1ccc(OC)c(NC2=CC(=O)c3ccccc3C2=O)c1 [Compound 9]", "> 1 µg/mL"],
  ["CN(C1=C(Cl)C(=O)c2ccccc2C1=O)c1ccccc1 [Compound 12]", "0.8 µg/mL"],
  ["COc1ccc(OC)c(NC2=C(Cl)C(=O)c3ccccc3C2=O)c1 [Compound 10]", "> 1 µg/mL"],
  ["O=C1C(Cl)=C(Nc2ccccc2)C(=O)c2ccccc21 [Compound 2]", "> 1 µg/mL"],
  ["Cc1ccccc1NC1=C(Cl)C(=O)c2ccccc2C1=O [Compound 4]", "> 1 µg/mL"],
  ["O=C1C(Cl)=C(Nc2ccc(O)cc2)C(=O)c2ccccc21 [Compound 6]", "> 1 µg/mL"],
  ["O=C1C=C(Nc2ccccc2)C(=O)c2ccccc21 [Compound 1, 2-phenylamino-1,4-naphthoquinone]", "0.16 µg/mL"],
  ["COc1ccc(NC2=C(Cl)C(=O)c3ccccc3C2=O)cc1 [Compound 8]", "> 1 µg/mL"]
]}
